System: E. coli ATCC 25922
assay.method.text: Broth microdilution MIC in CAMHB
Assay type: cell-based
study.conditions: Escherichia coli, ATCC25922; E. coli ATCC 25922; MHB; read-out: Minimum Inhibitory Concentration, E. coli 25922
Excerpt: Example III: In Vitro Antibacterial Assays To determine the ability of test compounds to inhibit the growth of bacterial strains, classic cell based broth microdilution minimum inhibitory concentration (MIC) assays were employed. […] Briefly, cryo-preserved bacterial cultures of challenge strains are streaked for isolation on appropriate agar medium, in this case cation-adjusted Mueller Hinton agar. […] The MIC values are read visually as the lowest concentration well with no bacterial growth.
What MIC was measured for each of the following?

NS(=O)(=O)Nc1cccc([C@@H](NC(=O)N2CCN(CC(F)(F)F)C(=O)C2=O)C(=O)N[C@H]2Cc3cccc(C(=O)O)c3OB2O)c1 (single isomer, unassigned) [Example 217]
32 to 64 µg/mL
CCN1CCN(C(=O)NC(C(=O)N[C@H]2Cc3cccc(C(=O)O)c3OB2O)c2ccc(C(=O)O)c(O)c2)C(=O)C1=O (stereo partly shown) [Example 196]
32 to 64 µg/mL
C[C@H]1CN(CCN)C(=O)C(=O)N1C(=O)N[C@@H](C(=O)N[C@H]1Cc2cccc(C(=O)O)c2OB1O)c1ncc(O)cc1F [Example 14]
8 to 16 µg/mL
CCN1CCN(C(=O)NC(C(=O)N[C@H]2Cc3cccc(C(=O)O)c3OB2O)c2ccc(O)c(F)c2F)C(=O)C1=O (stereo partly shown) [Example 173]
8 to 16 µg/mL
CCN1CCN(C(=O)NC(C(=O)N[C@H]2Cc3cccc(C(=O)O)c3OB2O)c2cccc([N+](=O)[O-])c2)C(=O)C1=O (stereo partly shown) [Example 75]
> 128 µg/mL
NCCN1CCN(C(=O)N[C@@H](C(=O)N[C@H]2Cc3cccc(C(=O)O)c3OB2O)c2cc(Cl)c(O)cc2Cl)C(=O)C1=O [Example 90]
> 128 µg/mL
CCN1CCN(C(=O)NC(C(=O)N[C@H]2Cc3ccc(SC)c(C(=O)O)c3OB2O)c2csc(N)n2)C(=O)C1=O (stereo partly shown) [Example 56]
32 to 64 µg/mL
NCCCN1CCN(C(=O)N[C@@H](C(=O)N[C@H]2Cc3cccc(C(=O)O)c3OB2O)c2c(O)cc(O)cc2F)C(=O)C1=O (single isomer, unassigned) [Example 195]
8 to 16 µg/mL

List reported MIC for each of these compounds:
1. CCN1CCN(C(=O)NC(C(=O)N[C@H]2Cc3cccc(C(=O)O)c3OB2O)c2cccc(N)c2)C(=O)C1=O (stereo partly shown) [Example 72]
2. NCCN1CCN(C(=O)NC(C(=O)N[C@H]2Cc3cccc(C(=O)O)c3OB2O)c2ccc(C(=O)O)c(Cl)c2)C(=O)C1=O (stereo partly shown) [Example 153]
3. CCN1CCN(C(=O)NC(C(=O)N[C@H]2Cc3ccc(SCCN)c(C(=O)O)c3OB2O)c2csc(N)n2)C(=O)C1=O (stereo partly shown) [Example 67]
4. CCN1CCN(C(=O)NC(C(=O)N[C@H]2Cc3cccc(C(=O)O)c3OB2O)c2c(F)cc(NC(=O)NC)cc2F)C(=O)C1=O (stereo partly shown) [Example 213]

32 to 64 µg/mL
32 to 64 µg/mL
32 to 64 µg/mL
32 to 64 µg/mL

Report MIC for CCN1CCN(C(=O)NC(C(=O)N[C@H]2Cc3cccc(C(=O)O)c3OB2O)c2cc(F)c(O)c(F)c2)C(=O)C1=O (stereo partly shown) [Example 160] please. 32 to 64 µg/mL

---

System: N. gonorrhoeae WHO G
assay.method.text: Liquid broth MIC in Fastidious broth
Assay type: cell-based
study.conditions: Neisseria gonorrhoeae; N. gonorrhoeae strain WHO G; Fastidious broth; read-out: Minimum Inhibitory Concentration, N. gonorrhoeae WHO G
Procedure: Example V: In Vitro Antibacterial Assays for N. gonorrhoeae Strains Additional antibacterial testing of the series was performed in 8 reference strains of N. gonorrhoeae (ATCC 49226, FA1090, WHO G, WHO L, WHO K, H041, WHO Z, and WHO Q). ATCC 49226, FA1090, WHO G, and WHO L produce wild type or wild-type like PBP2. […] After the dilution plates were set up, direct suspensions were then diluted in a cuvette containing sterile saline and the optical density was measured at 600 nm. […]
metric.name: MIC

CCN1CCN(C(=O)NC(C(=O)N[C@H]2Cc3ccc(F)c(C(=O)O)c3OB2O)c2ncc(C(=O)O)cc2F)C(=O)C1=O (stereo partly drawn) [Example 33]
16 to 32 µg/mL
NCCCN1CCN(C(=O)N[C@@H](C(=O)N[C@H]2Cc3cccc(C(=O)O)c3OB2O)c2c(O)cc(O)cc2F)C(=O)C1=O (single isomer, unassigned) [Example 195]
4 to 8 µg/mL
NC1(CN2CCN(C(=O)N[C@@H](C(=O)N[C@H]3Cc4ccc(F)c(C(=O)O)c4OB3O)c3c(F)cc(O)c(O)c3Cl)C(=O)C2=O)CC1 (single isomer, unassigned) [Example 134]
> 64 µg/mL
Nc1nc(/C(=N/OC[C@H](NC(=O)c2ccc(O)c(O)c2Cl)C(=O)O)C(=O)N[C@H]2Cc3cccc(C(=O)O)c3OB2O)cs1 [Example 6]
16 to 32 µg/mL

List reported MIC for each of these compounds:
1. NCCN1CCN(C(=O)N[C@H](C(=O)N[C@H]2Cc3ccc(F)c(C(=O)O)c3OB2O)c2c(F)cc(O)cc2F)C(=O)C1=O (single isomer, unassigned) [Example 128]
2. CCN1CCN(C(=O)NC(C(=O)N[C@H]2Cc3ccc(F)c(C(=O)O)c3OB2O)c2c(F)cc(O)cc2F)C(=O)C1=O (stereo partly drawn) [Example 130]

> 64 µg/mL
4 to 8 µg/mL

---

What EC50 was measured for each of the following?
target.under.test: N. gonorrhoeae PBP2 (Neisseria gonorrhoeae)
Construct: made in house
Sequence (P08149 whole entry): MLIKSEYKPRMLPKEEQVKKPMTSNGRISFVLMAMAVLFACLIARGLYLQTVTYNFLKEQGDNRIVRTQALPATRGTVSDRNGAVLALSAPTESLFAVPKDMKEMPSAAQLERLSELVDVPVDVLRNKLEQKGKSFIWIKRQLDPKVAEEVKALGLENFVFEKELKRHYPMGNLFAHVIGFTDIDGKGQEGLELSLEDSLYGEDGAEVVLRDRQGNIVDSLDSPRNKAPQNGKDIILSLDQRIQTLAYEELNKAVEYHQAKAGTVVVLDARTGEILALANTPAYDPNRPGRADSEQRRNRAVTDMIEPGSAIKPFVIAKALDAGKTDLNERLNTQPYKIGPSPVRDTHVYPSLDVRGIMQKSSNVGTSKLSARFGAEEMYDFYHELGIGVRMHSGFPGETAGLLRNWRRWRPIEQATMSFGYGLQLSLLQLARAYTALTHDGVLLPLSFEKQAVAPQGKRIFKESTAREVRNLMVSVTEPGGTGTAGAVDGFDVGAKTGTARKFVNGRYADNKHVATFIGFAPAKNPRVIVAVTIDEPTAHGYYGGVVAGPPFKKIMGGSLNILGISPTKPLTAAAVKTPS
assay.method.text: Bocillin-FL fluorescence polarization competition binding assay, N. gonorrhoeae PBP2
study.conditions: fluorescence polarization competition binding assay using Bocillin-FL; read-out: N. gonorrhoeae PBP2 Potency

Some solved entries appear below for comparison.
NCCN1CCN(C(=O)N[C@@H](C(=O)N[C@H]2Cc3cccc(C(=O)O)c3OB2O)c2cc(F)c(O)c(F)c2)C(=O)C1=O (single isomer, unassigned) [Example 159]
< 10 µM
CCN1CCN(C(=O)N[C@@H](C(=O)N[C@H]2Cc3cccc(C(=O)O)c3OB2O)c2ccc(C(=O)O)cc2Cl)C(=O)C1=O (single isomer, unassigned) [Example 151]
< 10 µM
CCN1CCN(C(=O)N[C@@H](C(=O)N[C@H]2Cc3cccc(C(=O)O)c3OB2O)c2ccc(C(=O)O)c(Cl)c2)C(=O)C1=O (single isomer, unassigned) [Example 154]
< 10 µM

List reported EC50 for each of these compounds:
1. CCN1CCN(C(=O)NC(C(=O)N[C@H]2Cc3cccc(C(=O)O)c3OB2O)c2c(F)cc(N)cc2F)C(=O)C1=O (some centres unmarked) [Example 181]
2. CCN1CCN(C(=O)N[C@@H](C(=O)N[C@H]2Cc3cccc(C(=O)O)c3OB2O)c2cc(O)cc(O)c2)C(=O)C1=O (single isomer, unassigned) [Example 82]

["> 100 µM", "< 10 µM"]

---

Tested on: N. gonorrhoeae WHO G
assay.method.text: Liquid broth MIC in Fastidious broth
Format: cell-based
study.conditions: Neisseria gonorrhoeae; N. gonorrhoeae strain WHO G; Fastidious broth; read-out: Minimum Inhibitory Concentration, N. gonorrhoeae WHO G
What MIC was measured for each of the following?

List reported MIC for each of these compounds:
1. O=C(NC(C(=O)N[C@H]1Cc2ccc(F)c(C(=O)O)c2OB1O)c1ncc(O)cc1F)c1c(F)cc(O)c(O)c1Cl (stereo partly drawn) [Example 10]
2. CCN1CCN(C(=O)NC(C(=O)N[C@H]2Cc3cccc(C(=O)O)c3OB2O)c2cncc(O)c2)C(=O)C1=O (stereo partly drawn) [Example 112]
3. NS(=O)(=O)Nc1cccc(C(NC(=O)N2CCN(Cc3c(F)cc(O)c(O)c3Cl)C(=O)C2=O)C(=O)N[C@H]2Cc3cccc(C(=O)O)c3OB2O)c1 (stereo partly drawn) [Example 131]
4. N=C(N)NC(C(=O)N[C@H]1Cc2ccc(F)c(C(=O)O)c2OB1O)c1ncc(O)cc1F (stereo partly drawn) [Example 52]
5. CCN1CCN(C(=O)N[C@@H](C(=O)N[C@H]2Cc3cccc(C(=O)O)c3OB2O)c2cc(O)cc(O)c2)C(=O)C1=O (single isomer, unassigned) [Example 82]
6. CCN1CCN(C(=O)N[C@@H](C(=O)N[C@H]2Cc3cccc(C(=O)O)c3OB2O)c2ccc(C(=O)O)cc2O)C(=O)C1=O (single isomer, unassigned) [Example 144]

["> 64 µg/mL", "4 to 8 µg/mL", "> 64 µg/mL", "> 64 µg/mL", "0.25 to 0.5 µg/mL", "0.25 to 0.5 µg/mL"]

FYI, the data here is from patent US20230114728A1.
